# target: CRBN/DDB1 (Homo sapiens (Human), UniProt Q96SW2)
# Sequence (Q96SW2 whole entry, species assumed): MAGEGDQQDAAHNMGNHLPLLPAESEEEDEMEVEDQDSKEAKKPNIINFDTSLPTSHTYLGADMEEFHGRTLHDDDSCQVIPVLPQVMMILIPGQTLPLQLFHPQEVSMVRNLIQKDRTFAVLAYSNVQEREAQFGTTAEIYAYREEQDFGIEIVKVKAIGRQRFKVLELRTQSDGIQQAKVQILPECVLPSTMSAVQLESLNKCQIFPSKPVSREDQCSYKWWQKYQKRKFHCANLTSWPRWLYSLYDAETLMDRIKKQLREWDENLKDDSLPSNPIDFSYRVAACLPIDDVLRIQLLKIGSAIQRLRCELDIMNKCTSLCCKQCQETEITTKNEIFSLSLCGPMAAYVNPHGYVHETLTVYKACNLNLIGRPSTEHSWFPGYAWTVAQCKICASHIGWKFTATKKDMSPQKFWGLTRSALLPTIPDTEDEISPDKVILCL
# Sequence (Q16531 whole entry partner, species assumed): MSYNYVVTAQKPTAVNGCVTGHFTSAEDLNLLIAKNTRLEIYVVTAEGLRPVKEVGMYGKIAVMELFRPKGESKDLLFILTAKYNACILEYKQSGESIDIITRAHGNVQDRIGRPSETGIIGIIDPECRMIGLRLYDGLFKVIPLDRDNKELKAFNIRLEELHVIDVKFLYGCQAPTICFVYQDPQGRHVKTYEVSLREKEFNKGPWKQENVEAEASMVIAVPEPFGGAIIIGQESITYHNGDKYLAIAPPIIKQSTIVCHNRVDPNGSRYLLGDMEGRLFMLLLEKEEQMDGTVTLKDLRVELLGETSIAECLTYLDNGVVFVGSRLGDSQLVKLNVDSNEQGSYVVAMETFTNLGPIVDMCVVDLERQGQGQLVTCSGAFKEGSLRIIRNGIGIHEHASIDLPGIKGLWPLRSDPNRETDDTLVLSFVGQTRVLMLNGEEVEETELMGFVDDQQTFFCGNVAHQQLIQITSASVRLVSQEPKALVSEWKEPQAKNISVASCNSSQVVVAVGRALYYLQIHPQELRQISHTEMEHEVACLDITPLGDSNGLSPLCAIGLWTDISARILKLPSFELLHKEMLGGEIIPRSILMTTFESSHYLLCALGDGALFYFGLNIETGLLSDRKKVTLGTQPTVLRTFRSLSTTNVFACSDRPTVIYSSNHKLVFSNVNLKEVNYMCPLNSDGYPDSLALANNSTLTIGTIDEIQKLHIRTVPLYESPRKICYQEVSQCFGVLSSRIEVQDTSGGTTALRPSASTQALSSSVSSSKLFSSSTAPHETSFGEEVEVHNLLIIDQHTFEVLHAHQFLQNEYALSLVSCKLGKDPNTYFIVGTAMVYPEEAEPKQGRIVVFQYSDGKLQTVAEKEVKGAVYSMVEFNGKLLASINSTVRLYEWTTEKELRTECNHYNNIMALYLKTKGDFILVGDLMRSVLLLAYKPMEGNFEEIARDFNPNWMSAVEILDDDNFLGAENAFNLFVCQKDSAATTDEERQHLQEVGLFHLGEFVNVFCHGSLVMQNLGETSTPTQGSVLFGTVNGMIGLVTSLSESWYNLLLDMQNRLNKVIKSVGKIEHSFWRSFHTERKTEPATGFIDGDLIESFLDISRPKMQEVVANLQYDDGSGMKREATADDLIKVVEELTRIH
# experiment notes: IC50 measurements for binding to CRBN/DDB1 (HTRF)
# condition details: His tagged CRBN+DDB, Cy5-labeled Thalidomide probe, one hour
Collected IC50 values appear next to each entry.
readout: IC50

INSERT INTO results (compound, readout, experimental_value) VALUES
  ('Cc1cc(-c2ccc3c(c2)CN(C2CCC(=O)NC2=O)C3=O)nc2c1CCN2CCO (centres unmarked)', 'IC50', '5000 to 10000 nM'),
  ('COCC1CCCN1Cc1cc(-c2ccc3c(c2)CN(C2CCC(=O)NC2=O)C3=O)nc2c1ccn2C (centres unmarked)', 'IC50', '100 to 500 nM'),
  ('Cn1cnc2c(-c3ccc4c(c3)CN(C3CCC(=O)NC3=O)C4=O)cc(CNCCc3ccccc3Cl)cc21 (centres unmarked)', 'IC50', '100 to 500 nM'),
  ('Cn1ccc2c(CN3CC4CCCC4C3)cc(-c3ccc4c(c3)CN(C3CCC(=O)NC3=O)C4=O)nc21 (centres unmarked)', 'IC50', '100 to 500 nM'),
  ('O=C1CCC(N2Cc3c(ccc(-c4cc(CN5CCCC5)c5cc[nH]c5n4)c3F)C2=O)C(=O)N1 (centres unmarked)', 'IC50', '100 to 500 nM'),
  ('CC1CCN(Cc2cc(-c3ccc4c(c3)CN(C3CCC(=O)NC3=O)C4=O)n3cncc3c2)C1 (centres unmarked)', 'IC50', '100 to 500 nM'),
  ('CCn1nc(N)c2nc(-c3ccc4c(c3)CN(C3CCC(=O)NC3=O)C4=O)cc(CN3CCCC3)c21 (centres unmarked)', 'IC50', '500 to 1000 nM'),
  ('O=C1CCC(N2Cc3cc(-c4cc(CN5CCC(O)C5)c5cc[nH]c5n4)ccc3C2=O)C(=O)N1 (centres unmarked)', 'IC50', '100 to 500 nM');
